Reported T 1/2 values for the following binders.
Molecular target: T1, hPRLR.mmh (soluble monomeric human PRLR) (human)
T1 construct: soluble monomeric PRLR protein
T1 chain: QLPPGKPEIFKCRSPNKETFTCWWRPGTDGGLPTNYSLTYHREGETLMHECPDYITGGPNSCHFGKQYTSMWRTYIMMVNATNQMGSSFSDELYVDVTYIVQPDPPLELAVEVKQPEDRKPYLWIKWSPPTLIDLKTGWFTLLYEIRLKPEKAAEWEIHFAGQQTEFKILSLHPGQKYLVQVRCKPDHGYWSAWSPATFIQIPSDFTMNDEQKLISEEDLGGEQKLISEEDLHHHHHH
Test: SPR (Biacore), antibody capture, 37 C
Number in min, nothing else.

| binder | observation.type | endpoint.value |
| --- | --- | --- |
| H1H6958N2 (antibody, human IgG1, V domains shown, also called H2M6958N2) VH: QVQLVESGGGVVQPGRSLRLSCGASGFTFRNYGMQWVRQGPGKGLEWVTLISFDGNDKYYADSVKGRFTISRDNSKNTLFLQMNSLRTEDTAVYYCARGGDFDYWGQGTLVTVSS VL: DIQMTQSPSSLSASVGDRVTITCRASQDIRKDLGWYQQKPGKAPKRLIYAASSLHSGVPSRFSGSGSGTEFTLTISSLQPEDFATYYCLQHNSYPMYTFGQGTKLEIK | T 1/2 | 8.8 |
| H1H6975N (antibody, human IgG1, V domains shown, also called H2M6975N) VH: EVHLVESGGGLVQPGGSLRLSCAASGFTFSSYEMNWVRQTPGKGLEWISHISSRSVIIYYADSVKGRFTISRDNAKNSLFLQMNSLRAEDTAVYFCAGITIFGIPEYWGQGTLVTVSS VL: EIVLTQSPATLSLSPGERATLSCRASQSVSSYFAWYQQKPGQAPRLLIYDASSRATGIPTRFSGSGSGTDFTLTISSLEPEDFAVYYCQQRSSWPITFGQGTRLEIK | T 1/2 | 42.3 |
| H1H6953N (antibody, human IgG1, V domains shown, also called H1M6953N) VH: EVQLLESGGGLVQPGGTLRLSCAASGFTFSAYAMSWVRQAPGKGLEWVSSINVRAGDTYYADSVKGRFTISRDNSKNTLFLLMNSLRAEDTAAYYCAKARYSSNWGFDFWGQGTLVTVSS VL: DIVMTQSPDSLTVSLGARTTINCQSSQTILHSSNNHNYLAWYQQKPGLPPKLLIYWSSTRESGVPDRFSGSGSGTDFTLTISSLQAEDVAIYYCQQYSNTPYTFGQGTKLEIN | T 1/2 | 9.4 |
| H1H6782P (antibody, human IgG1, V domains shown, human IgG1 Fc (H1H)) VH: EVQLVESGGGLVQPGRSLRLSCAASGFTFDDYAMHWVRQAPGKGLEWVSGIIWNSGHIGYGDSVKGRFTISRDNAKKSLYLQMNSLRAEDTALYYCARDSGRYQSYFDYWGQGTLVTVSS VL: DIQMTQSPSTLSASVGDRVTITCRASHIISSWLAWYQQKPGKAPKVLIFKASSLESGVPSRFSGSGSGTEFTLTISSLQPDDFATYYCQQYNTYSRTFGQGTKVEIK | T 1/2 | 16 |

[Q] Answer with the recorded T 1/2 for the binder listed here: H1H6795P (antibody, human IgG1, V domains shown, human IgG1 Fc (H1H)) VH: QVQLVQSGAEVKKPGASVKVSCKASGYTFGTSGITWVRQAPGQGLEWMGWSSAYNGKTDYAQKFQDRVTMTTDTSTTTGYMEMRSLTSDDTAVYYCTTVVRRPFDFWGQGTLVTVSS VL: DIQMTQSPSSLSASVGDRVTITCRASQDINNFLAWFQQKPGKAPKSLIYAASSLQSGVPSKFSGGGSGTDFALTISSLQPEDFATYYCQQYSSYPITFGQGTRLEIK
[A] 2
